Examples of compounds with documented EC50 follow.
Target: C-CBL (Homo sapiens)
Construct: endogenous in cells; host or cells: Jurkat HiBit-IL2 reporter cells, CBL-B knocked out by CRISPR
Assay: Jurkat HiBit-IL2 assay (CBL-B KO), reporter cell line expressing C-CBL only
Format: cell-based
Settings: CBL-B KO (C-CBL only), anti-CD3/anti-CD28 stimulation 4 hours, geometric mean, Table 16a, read-out: CBL-B KO EC50 (nM) GMean
# number only, unit nM dropped from output

In the examples that follow, each entry is paired with its recorded EC50.
CC(O)CNC(C)c1nc(C2CC2)cc2c(-c3cccc(C(c4nncn4C)C4CCC4)c3)n[nH]c12 (single isomer, unassigned) [Example H2] = 232
CC(NC(=O)[C@H](C)O)c1nc(C(F)(F)F)cc2c(-c3cccc([C@H](c4nncn4C)C4CCC4)c3)n[nH]c12 (single isomer, unassigned) = 852
C[C@H]1CCCN(Cc2nc(C(F)(F)F)cc3c(-c4cccc(C5(Cc6nncn6C)COC5)c4)n[nH]c23)C1 = 232
C[C@H](N[C@@H]1CCC(F)(F)C1)c1nc(C(F)(F)F)cc2c(-c3cccc(C4(Cc5nncn5C)COC4)c3)n[nH]c12 (single isomer, unassigned) = 196
Cn1cnnc1[C@@H](c1cccc(-c2n[nH]c3c(CN[C@H]4CCC[C@@H]4O)nc(C(F)(F)F)cc23)c1)C1CCC1 = 1050

Task item: Return EC50 for the following compound: C[C@H]1CCCN(Cc2nc(C(F)(F)F)cc3c(-c4cccc([C@H](c5nncn5C)C5CCC5)c4)n[nH]c23)C1
Reply: 519

Source: patent US20260125375A1
